# Lookup of reported koff keyed by entry
target: T1, cSNK:BSA conjugate (bovine, head-to-tail cyclized; conjugated to BSA carrier); assay: BLI 2:1 fit, site 2 (kdis2); 50 nM row
T1 construct: also called BSA-cSNK
T1 sequence (P02769 25-607 limits assumed): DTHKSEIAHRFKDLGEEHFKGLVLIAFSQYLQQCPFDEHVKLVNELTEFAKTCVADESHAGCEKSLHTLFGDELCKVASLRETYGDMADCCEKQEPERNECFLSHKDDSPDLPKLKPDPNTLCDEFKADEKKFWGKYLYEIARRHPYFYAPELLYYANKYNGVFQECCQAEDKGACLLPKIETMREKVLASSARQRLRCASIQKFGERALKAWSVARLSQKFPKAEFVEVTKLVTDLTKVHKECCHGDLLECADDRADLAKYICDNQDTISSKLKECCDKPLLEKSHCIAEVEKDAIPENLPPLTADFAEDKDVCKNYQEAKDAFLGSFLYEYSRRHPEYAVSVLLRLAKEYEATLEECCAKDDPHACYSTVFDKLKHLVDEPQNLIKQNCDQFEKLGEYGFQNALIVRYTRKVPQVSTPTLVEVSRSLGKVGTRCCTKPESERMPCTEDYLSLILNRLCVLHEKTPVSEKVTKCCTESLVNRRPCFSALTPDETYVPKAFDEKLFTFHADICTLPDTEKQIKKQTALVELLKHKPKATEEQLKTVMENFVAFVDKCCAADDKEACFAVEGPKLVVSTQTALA
Numeric answer only, unit s⁻¹ assumed.

| Binder | Test Value |
| --- | --- |
| murine monoclonal antibody 5E3 (antibody, V domains shown, mouse antibody of the 5E3 hybridoma; also called murine 5E3; m5E3) VH: QVQLQQSGPELVKPGASVRISCKASGYIFTSYYIQWVIHRPGQGLEWIGWIYPGNVNTKYNEKFKGKATLTADKSSSTAYMQLSRLTSEDSAVYFCARMDYEAHYWGQGTTLTVSS VL: DIQMTQSPSSLSASLGERVSLTCRASQEISGYLTWLQQKPDGTIKRLIYAASTLDSGVPKRFSGSRSGSDYSLTISSLESEDFADYNCLQYANYPRTFGGGTKLEIK | 0.0226 |
| hu5E3-IgG4 (antibody, V domains shown, human IgG4/kappa; also called humanized 5E3 IgG4) VH: QVQLQQSGPEVKKPGASVKISCKASGYIFTSYYIQWVIHAPGQGLEWIGWIYPGNVNTKYNEKFKGKATLTADKSSSTAYMELSSLTSEDTAVYFCARMDYEAHYWGQGTTVTVSS VL: DIQMTQSPSSLSASVGDRVTITCRASQEISGYLTWLQQKPEGAIKRLIYAASTLDSGVPKRFSGSRSGSDYSLTISSLQPEDFATYNCLQYANYPRTFGGGTKLEIK | 0.0229 |
| hu5E3-IgG1 (antibody, V domains shown, human IgG1/kappa; also called humanized 5E3 IgG1; IHA variant) VH: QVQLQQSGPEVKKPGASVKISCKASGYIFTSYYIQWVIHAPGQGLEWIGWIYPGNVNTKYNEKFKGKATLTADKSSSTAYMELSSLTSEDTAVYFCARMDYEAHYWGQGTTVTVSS VL: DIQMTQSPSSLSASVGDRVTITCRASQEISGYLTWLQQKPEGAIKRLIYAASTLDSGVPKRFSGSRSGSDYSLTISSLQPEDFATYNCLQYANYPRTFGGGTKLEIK | 0.012 |
| hu5E3-IgG2 (antibody, V domains shown, human IgG2/kappa; also called humanized 5E3 IgG2) VH: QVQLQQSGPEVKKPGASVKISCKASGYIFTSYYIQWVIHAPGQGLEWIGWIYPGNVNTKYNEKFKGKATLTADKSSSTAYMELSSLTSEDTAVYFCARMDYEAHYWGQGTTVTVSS VL: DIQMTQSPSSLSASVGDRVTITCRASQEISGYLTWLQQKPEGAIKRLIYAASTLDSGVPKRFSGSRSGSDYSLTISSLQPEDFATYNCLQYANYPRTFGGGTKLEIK | 0.0338 |

Could you now look at the following binder, please?
// query Find the recorded koff belonging to rehu5E3-IgG4 (antibody, V domains shown, human IgG4/kappa; also called IgG4 rehu version) VH: QVQLQQSGPEVVKPGASVKISCKASGYIFTSYYIQWVIHAPGQGLEWIGWIYPGNVNTKYNEKFKGKATLTADKSSSTAYMELSSLRSEDSAVYFCARMDYEAHYWGQGTLVTVSS VL: DIQMTQSPSSLSASLGDRVTLTCRASQEISGYLTWLQQKPEKAIKRLIYAASTLDSGVPKRFSGSRSGSDYTLTISSLQPEDFADYNCLQYANYPRTFGGGTKLEIK and report it.
// result 0.0175
